assayed target: Receptor tyrosine-protein kinase erbB-2 (Homo sapiens) (UniProt P04626)
Sequence (P04626 whole entry, looked up): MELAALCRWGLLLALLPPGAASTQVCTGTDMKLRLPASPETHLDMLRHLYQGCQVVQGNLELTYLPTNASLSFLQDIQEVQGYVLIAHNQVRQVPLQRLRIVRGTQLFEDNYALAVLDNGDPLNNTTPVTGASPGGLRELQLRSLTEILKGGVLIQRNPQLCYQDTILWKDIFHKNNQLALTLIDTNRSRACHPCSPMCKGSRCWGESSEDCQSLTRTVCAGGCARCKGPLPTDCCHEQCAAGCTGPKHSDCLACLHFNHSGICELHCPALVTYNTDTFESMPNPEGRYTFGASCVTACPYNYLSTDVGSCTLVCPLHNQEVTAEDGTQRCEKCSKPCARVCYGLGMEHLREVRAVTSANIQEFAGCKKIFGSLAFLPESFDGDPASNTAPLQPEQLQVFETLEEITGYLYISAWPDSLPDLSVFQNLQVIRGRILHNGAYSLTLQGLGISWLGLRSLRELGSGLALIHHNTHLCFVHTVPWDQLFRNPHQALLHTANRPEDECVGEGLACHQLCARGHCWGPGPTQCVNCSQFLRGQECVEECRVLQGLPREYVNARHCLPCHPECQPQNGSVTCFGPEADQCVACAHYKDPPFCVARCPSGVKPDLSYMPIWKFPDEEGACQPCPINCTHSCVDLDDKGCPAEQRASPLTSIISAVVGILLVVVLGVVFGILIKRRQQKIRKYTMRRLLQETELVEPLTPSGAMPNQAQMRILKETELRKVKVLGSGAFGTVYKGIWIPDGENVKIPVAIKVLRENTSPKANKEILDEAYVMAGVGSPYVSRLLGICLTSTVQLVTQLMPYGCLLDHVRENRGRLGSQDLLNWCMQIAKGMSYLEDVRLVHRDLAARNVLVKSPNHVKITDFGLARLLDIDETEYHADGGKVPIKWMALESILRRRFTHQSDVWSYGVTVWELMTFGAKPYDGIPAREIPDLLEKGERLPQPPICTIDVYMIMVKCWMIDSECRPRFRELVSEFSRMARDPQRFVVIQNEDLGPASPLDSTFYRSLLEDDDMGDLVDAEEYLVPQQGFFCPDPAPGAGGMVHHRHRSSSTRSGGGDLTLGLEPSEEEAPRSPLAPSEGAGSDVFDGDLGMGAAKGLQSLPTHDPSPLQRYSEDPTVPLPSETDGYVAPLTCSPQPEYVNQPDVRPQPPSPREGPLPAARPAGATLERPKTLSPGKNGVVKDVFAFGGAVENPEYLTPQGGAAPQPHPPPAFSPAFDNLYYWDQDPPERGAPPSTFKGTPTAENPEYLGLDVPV
test protocol: reducers of endogenous Her2 protein level, primary screen, SKBR3 breast tumor cells, AlphaScreen, ATP viability (AID 461);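 also: lower value means less Her2 protein in the cells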
condition: 18-24 h, at 10 µM, stronger effect = lower value
metric: Her2 level (%)
# value in %; strip the unit string

Worked cases, Her2 level given:
molecule=Cc1cc(-c2ccccc2)c2nncn2n1 assayed_target="Receptor tyrosine-protein kinase erbB-2 (Homo sapiens) (UniProt P04626)" units=% numeric_value=96
molecule="CCN1C(=O)NC(c2cc(Br)ccc2OC)C(C(=O)OC)=C1C (stereo not drawn)" assayed_target="Receptor tyrosine-protein kinase erbB-2 (Homo sapiens) (UniProt P04626)" units=% numeric_value=114
molecule=Cc1ccc2[nH]c(=O)c(CN(Cc3ccc4c(c3)OCO4)Cc3nnnn3Cc3ccco3)cc2c1 assayed_target="Receptor tyrosine-protein kinase erbB-2 (Homo sapiens) (UniProt P04626)" units=% numeric_value=93

Identify Her2 level associated with the molecule N#Cc1ccc(COC(=O)Cn2nnc(-c3ccccc3)n2)cc1
96

For the molecule Cc1ccc(C)c(OCC(O)CN2C(C)CCCC2C)c1 (stereo not drawn) , give its reported Her2 level.
98

Specify Her2 level for CCCCC(c1nnnn1C1CCCC1)N1CCN(C2CCCCC2)CC1 (stereo not drawn) and stop.
74

For Cc1ccc(S(=O)(=O)N2CCC(C(=O)N3CCC[C@H]3C(=O)NCc3ccccc3)CC2)cc1 , write its Her2 level.
103

Answer with the recorded Her2 level of COC(=O)c1sc(NC(=O)c2ccoc2C)nc1C only.
118
